Each entry below carries its reported EC50.
# Tgt: human GPR119 (Homo sapiens, UniProt Q8TDV5)
# Construct: expression vector for human GPR119 cDNA (Acc. No. NP_848566); Min-6/hGPR119
# Sequence (Q8TDV5 whole entry): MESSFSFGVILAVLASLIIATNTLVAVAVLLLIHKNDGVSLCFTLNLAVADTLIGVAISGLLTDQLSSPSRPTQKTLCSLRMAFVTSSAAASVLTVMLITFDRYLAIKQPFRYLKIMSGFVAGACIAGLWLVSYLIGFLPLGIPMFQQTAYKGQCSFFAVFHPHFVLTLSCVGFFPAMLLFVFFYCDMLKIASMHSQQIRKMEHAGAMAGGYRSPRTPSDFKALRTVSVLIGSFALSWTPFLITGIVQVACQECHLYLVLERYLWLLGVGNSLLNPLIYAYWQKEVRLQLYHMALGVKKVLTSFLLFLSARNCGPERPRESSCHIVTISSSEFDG
# Test Summary: AlphaScreen cAMP assay in MIN6 cells stably transfected with human GPR119
# Test Settings: Min-6/hGPR119 cells, 45 min at room temperature
Provide the reading as a plain figure in nM.

CC(C)OC(=O)N1CCC(N(C(=O)c2cnc(-c3ccc(C#N)c(F)c3)nc2)C2CC2)CC1
13
CN(C(=O)c1ccc(-c2ncc(C(=O)N(C3CC3)C3CCN(C(=O)OC(C)(C)C)CC3)cn2)cc1)C1CCCOC1 (centres unmarked)
545
COC1CN(C(=O)c2ccc(-c3ncc(C(=O)N(C4CC4)C4CCN(C(=O)OC(C)(C)C)CC4)cn3)cc2F)C1
264

### Prompt Fill in reported EC50 for this entry: CC(C)(C)OC(=O)N1CCC(N(C(=O)c2cnc(-c3ccc(C(=O)N4CCCC(CO)C4)c(F)c3)nc2)C2CC2)CC1 (centres unmarked)
### Response 548

### Prompt Assign EC50 to the following record: COC(C)CN(C)C(=O)c1ccc(-c2ncc(C(=O)N(C3CC3)C3CCN(C(=O)OC(C)(C)C)CC3)cn2)cc1 (centres unmarked)
### Response 234

### Prompt Answer with the recorded EC50 of CC(C)(C)OC(=O)N1CCC(N(C(=O)c2cnc(-c3ccc(OC(F)(F)F)cc3)nc2)C2CC2)CC1 only.
### Response 55

### Prompt Specify reported EC50 for the molecule shown: CC(C)(C)OC(=O)N1CCC(N(C(=O)c2noc(-c3ccc(S(C)(=O)=O)c(F)c3)n2)C2CC2)CC1
### Response 33

### Prompt In one line, give reported EC50 of the entry CC(C)(C)OC(=O)N1CCC(N(C(=O)c2cnc(-c3ccc(C(=O)N4CCCC(O)C4)cc3)nc2)C2CC2)CC1 (centres unmarked) .
### Response 820

### Prompt Give EC50 for CN(Cc1ccncc1)C(=O)Cc1ccc(-c2ncc(C(=O)N(C3CC3)C3CCN(C(=O)OC(C)(C)C)CC3)cn2)cc1
### Response 312

### Prompt Give EC50 for the following molecule: CC(C)(C)OC(=O)N1CCC(N(C(=O)c2csc(-c3ccc(C#N)cc3)n2)C2CC2)CC1
### Response 1860

### Prompt Note EC50 for the molecule shown: CC(C)(C)OC(=O)N1CCC(N(C(=O)c2nc(-c3ccc(Br)cc3F)no2)C2CC2)CC1
### Response 210

### Prompt For CC(C)(C)OC(=O)N1CCC(N(C(=O)c2cnc(-c3ccc(C#N)cc3)nc2)C2CC2)CC1 , write its EC50.
### Response 14

### Prompt Using the record for CC(C)(C)OC(=O)N1CCC(N(C(=O)c2cnc(-c3ccc(C(=O)Nc4cccc(CO)c4)c(F)c3)nc2)C2CC2)CC1 , state its measured EC50.
### Response 141

### Prompt Hello, please tell me recorded EC50 for this one: CC(C)(C)OC(=O)N1CCC(N(C(=O)c2cnc(-n3cnc(CO)c3)nc2)C2CC2)CC1
### Response 349
